# MEASUREMENT_TARGET: SARS-CoV-2 wild type spike protein (on reporter virus particles) (SARS-CoV-2, UniProt P0DTC2 14-1273)
# TEST_METHOD_NOTES: cell-based or functional assay
Each item that follows carries a reported WT PsV IC50.

>  <BINDER>
A-21.3 (antibody, V domains shown) VH: EVQLVESGGGLVQPGGSLRLSCAASGFTFRRYWMHWVRQAPGKGLEWVSRINSDGSSTTYADSVEGRFTISRDNAKNTLYLQMNSLRAEDTAVYYCARELYYYDRRGAEEGEGWFDPWGQGTLVTVSS VL: QSVLTQPPSVSGAPGQRVTISCTGISSNIGAEYDVHWYQQLPGTAPKLLIYGNSNRPRGVPDRFSASKSGTSAPLAITGLQAEDEADYYCQVSDRYLSGSVFGTGTKVTVL

>  <WT PsV IC50 / nM>
0.946

$$$$
>  <BINDER>
A-24.3 (antibody, V domains shown) VH: EVQLVESGGGLVKPGRSLRLSCAASGFTFADYTMSWFRQAPGKGLEWVGFIRSEPYGGTTEYAASVKGRFTISRDDSKSIAYLQMNSLKTEDTAVYYCSRDPWYCSGGDCYAVTGSWFDPWGQGTLVTVSS VL: DIQMTQSPSSLSASVGDRVTITCQASRDIKKYLNWYQQKPGKAPKLLIYDVSNLETGVPSRFSGSGSGTDFTFTISSLQPEDVAIYYCQQYDQLPQTFGQGTKVEIE

>  <WT PsV IC50 / nM>
0.0454

$$$$

This collection of values is drawn from patent US20260217797A1.
